assay: cytotoxicity in IL-1B stimulated HUVEC, primary screen, cytotoxicity control for IL-1B NFkB translocation project, imaging, Hoechst nuclear count, IL-1B stimulus (AID 845); conditions: HUVEC cell count loss, at 2 µM, hits give high values;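 also: normalized per plate to untreated control cells as the no-loss baseline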
The campaign covered roughly 94,000 compounds. About 390 (0.41%) were called active. This is one part of a sample in which actives are shown more often than they occur.
Measured cell count reduction of individual entries
Write the number in % without appending the unit.

Some compounds with recorded cell count reduction:
O=C(Nc1cccn(Cc2c(Cl)cccc2Cl)c1=O)c1ccc(Cl)cc1 | -1.3
C/C=C/C(=O)Nc1nnc(C(C)C)s1 | 7.2
CC(C)Oc1ccc(Oc2ccc(C(F)(F)F)cn2)cc1 | -8.6
Cn1c(CNc2nc(-c3ccccc3)cs2)nnc1SCC(=O)c1ccccc1 | -12
CCCC(O)(c1ccc(OC)cc1)C(CN(C)C)c1ccccc1 (stereo not given) | -16.3

Give the value of cell count reduction reported for the following: O=C(NCCN1CCN(Cc2ccccc2)CC1)c1cc2c(=O)[nH]c3ccccc3c2s1
26.5

Give the value of cell count reduction reported for the following: C=CCOc1ccc(Cl)cc1CNCCCN1CCOCC1
6.4

Give the value of cell count reduction reported for the following: O=C(Nc1ccccc1Cl)O/N=C(/c1ccccc1)c1ccccn1
-21.6

Give the value of cell count reduction reported for the following: COc1ccc(-c2nnc(SCC(=O)c3ccc4c(c3)OCCO4)o2)cc1
-13.4

Give the value of cell count reduction reported for the following: CCc1c(O)nc(SCC(=O)Nc2ccccc2)n(C(C)CC)c1=O (stereo not given)
-2.8

Give the value of cell count reduction reported for the following: Cc1ccc(OCCCC(=O)Nc2ccc(N3CCOCC3)cc2)cc1
10.3

Give the value of cell count reduction reported for the following: COc1cccc(NC(=O)c2nn(C34CC5CC(CC(C5)C3)C4)cc2[N+](=O)[O-])c1
-1.4

Give the value of cell count reduction reported for the following: O=C(NC(=O)c1ccccc1)NC(=O)c1ccccc1
15.2

Give the value of cell count reduction reported for the following: Cc1ccc(Oc2ccc3c(c2)C(=O)N(c2cccc4cccnc24)C3=O)cc1
-63.9

Give the value of cell count reduction reported for the following: CC(=O)c1nn(-c2cccc(Br)c2)cc1C(=O)c1cccc2ccccc12
-1.6

Give the value of cell count reduction reported for the following: Cc1ccc(-n2cc3ccc([N+](=O)[O-])cc3n2)cc1
-52.5

Give the value of cell count reduction reported for the following: Cc1ccc(-c2csc(SCC(=O)Nc3cc(C)on3)n2)cc1
8.8

Give the value of cell count reduction reported for the following: O=C(c1ccccc1-c1ccccc1)N1CCOCC1
-0.4

Give the value of cell count reduction reported for the following: Cc1cccc(C)c1NC(=O)c1ccc(CN2CCc3ccccc3C2)cc1
-6.8

Give the value of cell count reduction reported for the following: O=c1[nH][nH]c(C(F)(F)F)c1C=NCc1ccccc1Cl
86.3

Give the value of cell count reduction reported for the following: CCN(CC)CCNC(=O)C1c2ccccc2C(=O)N(C)C1c1cn(C)c2ccccc12 (stereo not given)
0.9

Give the value of cell count reduction reported for the following: CCn1c(=O)c(=O)n(CC)c2cc(S(=O)(=O)N3CCc4ccccc43)ccc21
14.3

Give the value of cell count reduction reported for the following: Cn1c(CC(=O)Nc2ccccc2)nnc1SCC(=O)c1ccccc1
87.8

Give the value of cell count reduction reported for the following: Cc1ccccc1OCC(=O)NCC(=O)OCC(=O)c1ccc2ccccc2c1
13

Give the value of cell count reduction reported for the following: COc1ccc(C2=Nc3cc(C)ccc3OC2)cc1
-0.6
